Molecular target: Gamma-aminobutyric acid receptor subunit alpha-4 (Rattus norvegicus)
Sequence (P28471 whole entry): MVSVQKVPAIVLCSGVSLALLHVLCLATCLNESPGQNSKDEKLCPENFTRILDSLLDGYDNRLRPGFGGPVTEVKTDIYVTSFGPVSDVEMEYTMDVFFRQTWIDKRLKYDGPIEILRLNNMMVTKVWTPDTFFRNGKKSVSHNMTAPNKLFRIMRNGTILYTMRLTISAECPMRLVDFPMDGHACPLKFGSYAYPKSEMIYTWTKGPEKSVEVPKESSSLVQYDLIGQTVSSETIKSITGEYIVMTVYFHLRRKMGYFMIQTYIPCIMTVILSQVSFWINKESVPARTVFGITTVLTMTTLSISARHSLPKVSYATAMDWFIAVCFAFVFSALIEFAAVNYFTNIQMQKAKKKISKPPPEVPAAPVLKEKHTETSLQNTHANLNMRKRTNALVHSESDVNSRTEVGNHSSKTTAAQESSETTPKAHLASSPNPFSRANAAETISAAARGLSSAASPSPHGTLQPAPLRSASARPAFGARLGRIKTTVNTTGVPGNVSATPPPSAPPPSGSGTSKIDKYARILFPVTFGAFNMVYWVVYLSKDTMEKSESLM
EXPERIMENTAL ENDPOINT: pKi
The value called pKi is obtained by taking minus log10 of the concentration in mol/L.

| SMILES STRUCTURE | pKi |
| --- | --- |
| CN1Cc2c(C(=O)OC(C)(C)C)ncn2-c2ccsc2C1=O | 8.22 |
| CN1Cc2c(C(=O)OC(C)(C)C)ncn2-c2ccc(N=[N+]=[N-])cc2C1=O | 8.28 |

Record lookup: for Gamma-aminobutyric acid receptor subunit alpha-4 (Rattus norvegicus), what pKi belongs to COc1ccc(-n2[nH]c3c(cnc4ccccc43)c2=O)cc1 ?
8.17

Identify the measured pKi of CN1Cc2c(C(=O)OC(C)(C)C)ncn2-c2ccc(Cl)cc2C1=O for Gamma-aminobutyric acid receptor subunit alpha-4 (Rattus norvegicus).
8.02

What value of pKi on Gamma-aminobutyric acid receptor subunit alpha-4 (Rattus norvegicus) does CC(C)(C)OC(=O)c1cc2c(cn1)[nH]c1ccccc12 have?
6.05

Provide the documented pKi with Gamma-aminobutyric acid receptor subunit alpha-4 (Rattus norvegicus) as the system for O=c1c2cnc3ccccc3c2[nH]n1-c1ccc(Cl)cc1
6.67

----------
log10 Ki: recorded values
Target: Gamma-aminobutyric acid receptor subunit alpha-6 (Rattus norvegicus)
Sequence (P30191 whole entry): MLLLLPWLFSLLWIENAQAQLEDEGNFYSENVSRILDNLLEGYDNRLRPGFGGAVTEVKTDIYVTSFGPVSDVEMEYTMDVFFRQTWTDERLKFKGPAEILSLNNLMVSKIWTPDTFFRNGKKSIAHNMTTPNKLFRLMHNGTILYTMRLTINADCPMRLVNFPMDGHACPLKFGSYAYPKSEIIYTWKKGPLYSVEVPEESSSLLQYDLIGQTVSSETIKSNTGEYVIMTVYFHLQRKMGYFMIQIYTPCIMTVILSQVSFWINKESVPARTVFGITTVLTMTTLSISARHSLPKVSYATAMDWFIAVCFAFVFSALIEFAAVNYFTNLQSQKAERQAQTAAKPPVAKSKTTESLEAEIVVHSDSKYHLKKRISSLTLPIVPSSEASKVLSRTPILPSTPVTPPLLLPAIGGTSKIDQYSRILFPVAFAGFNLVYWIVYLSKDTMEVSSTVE
// units: nM (pre-log); metric: Ki; scale: log10

Known log10 Ki results, listed for orientation:
| SMILES STRUCTURE | log10 Ki |
| --- | --- |
| O=c1c2cnc3ccccc3c2[nH]n1-c1ccc(Cl)cc1 | 2.70 |
| CC(C)(C)OC(=O)c1cc2c(cn1)[nH]c1ccccc12 | 3.68 |
| O=c1c2cnc3ccccc3c2[nH]n1-c1ccccc1 | 1.54 |

I'd like to know its log10 Ki. The molecule in question is CCOC(=O)c1ncn2c1CN(C)C(=O)c1cc(N=[N+]=[N-])ccc1-2
0.72

// lookup log10 Ki for COc1ccc(-n2[nH]c3c(cnc4ccccc43)c2=O)cc1
1.58

For the molecule CN1Cc2c(C(=O)OC(C)(C)C)ncn2-c2ccc(N=[N+]=[N-])cc2C1=O , what log10 Ki is on record?
0.72

Return reported log10 Ki; argument: COc1ccc(-n2[nH]c3c(cnc4cc(OC)ccc43)c2=O)cc1
1.36

----------
Assay system Gamma-aminobutyric acid receptor subunit alpha-6 (Rattus norvegicus); read-out recorded as Ki.
The reply should contain only the number, in nM.

Record excerpt, results attached:
| SMILES STRUCTURE | ASSAYED SYSTEM | UNIT LABEL | Ki |
| --- | --- | --- | --- |
| CN1Cc2c(C(=O)OC(C)(C)C)ncn2-c2ccsc2C1=O | Gamma-aminobutyric acid receptor subunit alpha-6 (Rattus norvegicus) | nM | 3.6 |
| CCOC(=O)c1cc2c(cn1)[nH]c1ccccc12 | Gamma-aminobutyric acid receptor subunit alpha-6 (Rattus norvegicus) | nM | 2620 |
| CCc1ccc2c(c1)C(=O)N(C)Cc1c(C(=O)OC(C)(C)C)ncn1-2 | Gamma-aminobutyric acid receptor subunit alpha-6 (Rattus norvegicus) | nM | 13.5 |

Provide the documented Ki with Gamma-aminobutyric acid receptor subunit alpha-6 (Rattus norvegicus) as the system for CN1Cc2c(C(=O)OC(C)(C)C)ncn2-c2ccc(Cl)cc2C1=O
8.2

Recorded Ki for CCc1c(C(=O)OC)ncc2[nH]c3cc(OC)c(OC)cc3c12 with Gamma-aminobutyric acid receptor subunit alpha-6 (Rattus norvegicus), please?
121
